# System: HS 578T breast
# ASSAY_METHOD_TEXT: NCI tumour cell line growth inhibition, 48 h

{"columns": ["COMPOUND", "TGI"],
 "data": [
  ["O=C(O)C1C(=O)Oc2c(cccc2[N+](=O)[O-])C1O (stereo not given)", "> 100 µM"],
  ["O=C(NCCCCCCNC(=O)n1cc(F)c(=O)[nH]c1=O)NCCCOCCOCCOCCOCCOCCOCCOCCOCCOCCOCCOCCOCCOCCOCCOCCOCCOCCOCCOCCOCCOCCCNC(=O)C(O)C(O)C(OC1OC(CO)C(O)C(O)C1O)C(O)CO (stereo not given)", "> 100 µM"],
  ["S=c1nc2sc3c(c2c(Nc2ccc(Br)cc2)[nH]1)CCN(N1CCc2c(sc4nc(=S)[nH]c(Nc5ccc(Br)cc5)c24)C1)C3", "> 50 µM"],
  ["CCOC(=O)C1C[C@H]2CO[C@H](c3ccccc3)N2C1=O (stereo not given in full)", "> 100 µM"],
  ["CCCOC(=O)N[C@H]1CCc2cc(OC)c(OC)c(OC)c2-c2ccc(SC)c(=O)cc21", "> 100 µM"]
]}

* * *

# System: LOX IMVI melanoma
# ASSAY_METHOD_TEXT: NCI tumour cell line growth inhibition, 48 h
Entries and their TGI values follow.

{"columns": ["COMPOUND", "TGI"],
 "data": [
  ["CCO/C=C1\\N=C(C(Cl)c2ccccc2)OC1=O (stereo unspecified)", "> 100 µM"],
  ["CC1(C)O[C@H]2OC(CO)C(OS(C)(=O)=O)[C@H]2O1 (stereo partly specified)", "> 100 µM"],
  ["O=C1OC(c2ccc(Cl)cc2)(c2ccc(Cl)cc2)c2c1ccc1ccccc21", "> 100 µM"],
  ["c1ccc(CCN2CCN=C2Cc2ccccc2)cc1", "> 100 µM"],
  ["CC(C)(C)OC(=O)N1Cc2cc(O)ccc2C[C@H]1C(=O)O", "> 100 µM"],
  ["C/C(=N\\NC(=O)c1cccnc1)c1cccc(/C(C)=N/NC(=O)c2cccnc2)n1.CC(=O)[O-].CC(=O)[O-].[Zn+2]", "> 32.5 µM"],
  ["COc1nc2ccc(CNc3ccc(C(=O)O)cc3)cc2nc1OC", "> 10 µM"],
  ["CC(C)(C)c1cc(/C=C/C(=O)CC(=O)/C=C/c2cc(C(C)(C)C)c(O)c(C(C)(C)C)c2)cc(C(C)(C)C)c1O", "> 50 µM"],
  ["O=c1cc(-c2ccccc2)nc(/C=C(\\O)c2ccncc2)n1-c1ccccc1", "> 100 µM"],
  ["Clc1cc(OCC23CC4CC(CC(C4)C2)C3)nc(OCC23CC4CC(CC(C4)C2)C3)n1", "> 100 µM"],
  ["CC(=O)NC(C)c1ccc(N=NN2CCCC2)cc1 (stereo unspecified)", "> 100 µM"]
]}

* * *

# System: CAKI-1 renal
# ASSAY_METHOD_TEXT: NCI tumour cell line growth inhibition, 48 h
RESULT_TYPE: GI50

{"columns": ["COMPOUND", "RESULT"],
 "data": [
  ["Nc1nc2ccc3[nH]ncc3c2c2c1CCCC2", "609 nM"],
  ["Cn1c(/C=C(\\C#N)c2cccc(C(F)(F)F)c2)nc2c(N3CCOCC3)nc(Cl)nc21", "656 nM"],
  ["CSc1n(Cc2ccc3ccccc3c2)c(C)c[n+]1Cc1ccc2ccccc2c1", "1490 nM"],
  ["O=C(NCCN1CCC(O)CC1)c1cc2c(o1)C(=O)c1ccccc1C2=O", "1280 nM"],
  ["CCOc1ccc2nc(-c3cccc(OCC(=O)NC(C)C)c3)nc(Nc3ccc(-c4cn[nH]c4)cc3)c2c1", "968 nM"],
  ["Cc1ccc(C(=O)/C(=C\\c2ccc([N+](=O)[O-])cc2)S(=O)Cc2ccc(F)cc2)cc1 (stereo unspecified)", "1770 nM"],
  ["COc1ccc([I+]c2ccccc2)cc1", "12500 nM"],
  ["O=C1c2cc(-c3ccccc3)ccc2-c2c1c1ccc([N+](=O)[O-])cc1c(=O)n2CCCBr", "> 50000 nM"],
  ["O=C(O)c1ccc2c3c(ncnc13)-c1ccccc1C2=O", "> 81100 nM"],
  ["Cc1cc([N+](=O)[O-])ccc1NS(=O)(=O)c1cc(Cl)ccc1Cl", "2540 nM"],
  ["N#Cc1ccc(C2C3=C(CCCC3=O)OC3=C2C(=O)c2ccccc2C3=O)cc1 (stereo unspecified)", "1880 nM"]
]}

* * *

# System: SK-OV-3 ovarian
# ASSAY_METHOD_TEXT: NCI tumour cell line growth inhibition, 48 h
Where a SMILES comes first, the peptide text is derived from it. [ ]: non-standard residue; d: D form. The star is where a group is joined. ξ: configuration not given here. Propanoyl(3-(4-MeO-Ph)) = COc1ccc(CCC(=O)*)cc1; Thr(3ξ) = CC(O)[C@H](N)C(=O)O; dNMeL = CN[C@H](CC(C)C)C(=O)O; ξLac = CC(O)C(=O)O
Entries and their TGI values follow.

{"columns": ["COMPOUND", "TGI"],
 "data": [
  ["COC(=O)c1c(O)ccc2c1c1c(n2Cc2ccccc2OC)C(=O)c2ccccc2C1", "> 100 µM"],
  ["Cc1cc([N+](=O)[O-])ccc1NS(=O)(=O)c1cc(Cl)ccc1Cl", "8.63 µM"],
  ["CC1=C(C(=O)Nc2ccc([N+](=O)[O-])cc2)C(c2ccccc2O)C(C(=O)Nc2ccc([N+](=O)[O-])cc2)=C(C)N1", "94.7 µM"],
  ["Nc1nn(CC(O)CO)c(=O)s1 (stereo not drawn)", "> 100 µM"],
  ["CN1C(=O)C(=Cc2cn(Cc3ccccc3)c3ccccc23)C(=O)N(C)C1=O", "> 100 µM"],
  ["Cc1cccc(Cl)c1NC(=O)c1cnc(Nc2cc(N3CCOCC3)cc(N3CCOCC3)c2)s1", "1.6 µM"],
  ["CC(C)(O)[C@@H]1CC[C@@]2(C)CCC[C@H](O)[C@H]2C1", "> 100 µM"],
  ["c1ccc(Nn2c(CCCCCCCCc3nnc(COc4ccccc4)n3Nc3ccccc3)nnc2COc2ccccc2)cc1", "> 300 µM"],
  ["COc1cc([C@H]2c3cc4c(cc3[C@H](NCc3ccc([N+](=O)[O-])cc3)C3COC(=O)[C@H]32)OCO4)cc(OC)c1O (stereo partly drawn)", "> 24.6 µM"],
  ["Cc1cc2c(cc1-c1cc3c(cc1C)C(C(C)C)=C(O)C(=O)/C3=C\\Nc1c(C)n(C)n(-c3ccccc3)c1=O)/C(=C/Nc1c(C)n(C)n(-c3ccccc3)c1=O)C(=O)C(O)=C2C(C)C", "> 100 µM"],
  ["CCn1c2ccc(C(=O)CCCN(C)C)cc2c2cc(C(=O)CCCN(C)C)ccc21", "22.1 µM"],
  ["CCOC(=O)C1=CC(C)(C(=O)OCC)Nc2c(nc(SC)n(C)c2=O)N1 (stereo not drawn)", "> 10 µM"],
  ["COC(=O)[C@@]1(O)CC(C)C=C1C=O (stereo partly drawn)", "> 100 µM"],
  ["O=C(Nc1ccc2[nH]c(C(=O)N3CC(CCl)c4c3cc([N+](=O)[O-])c3ccccc43)cc2c1)c1cc2ccccc2o1 (stereo not drawn)", "> 1100 µM"],
  ["COc1ccc(OC)c(NCC#N)c1", "> 100 µM"],
  ["COc1ccc2oc(=Nc3ccc(F)cc3)c(C(N)=O)cc2c1", "52.1 µM"],
  ["COc1ccc(/C=N/n2cnc3c(c2=O)S/C(=C2/SC(=S)N(c4ccc(C)cc4)C2=O)N3c2ccccc2)cc1", "> 100 µM"],
  ["COC(=O)[C@@H](NC(=O)[C@@H](CC(C)C)N(C)C(=O)[C@@H]1CCCN1C(=O)C(C)O)C(C)OC(=O)CCc1ccc(OC)cc1 (stereo partly drawn) (H-[ξLac]P[dNMeL][Thr(3ξ)](Propanoyl(3-(4-MeO-Ph)))-OMe)", "> 100 µM"],
  ["CCOc1ccccc1N1C(=O)C(=O)C(c2nc3ccccc3o2)/C(=N\\N)C1=O (stereo not drawn)", "> 100 µM"],
  ["CCCCCC(O)(CCCCC)CCCCCCCCC1=C(O)c2ccccc2C(=O)C1=O", "> 64.1 µM"],
  ["COc1ccc(S(=O)(=O)Nc2ccc(-c3csc(N4C(=O)/C(=C/c5ccccc5)N=C4c4ccccc4)n3)cc2)cc1Cl", "> 100 µM"],
  ["CCOC(=O)Cn1nnc2cc(Nc3nc4ccccc4nc3C(=O)OCC)ccc21", "> 100 µM"],
  ["CCCCC1(N=[N+]=[N-])C(=O)C2C=CC=C3c4ccccc4N(C1=O)C32 (stereo not drawn)", "> 31.6 µM"],
  ["C[C@H](N)C(=O)N[C@@H]1[C@H]2C(=C(O)C[C@@H](O)[C@@H]2O)C(=O)O[C@@H]1C", "> 100 µM"],
  ["CCN(CC)CCCC(C)Nc1c2ccc(Cl)cc2nc2cc(OC)c(OC)cc12 (stereo not drawn)", "8.87 µM"],
  ["COc1ccc(/C(Cl)=C(\\C=O)c2ccccc2)cc1OC", "> 100 µM"],
  ["CCCCOC(=O)c1ccc(NC(=O)CCl)cc1", "22.6 µM"],
  ["COc1ccc(N=N/C(=N/NC(=O)c2cc(Cl)ccc2C(=O)c2ccccc2)c2ccc(N(CCC#N)CCC#N)cc2C)cc1", "> 100 µM"]
]}
